B1: DVL3 (parent)
chain: FPELGYSYGGGSASSQHSEGSRSS

variants of: B1; assay: protein stability index of a GFP-peptide fusion (GPS, HEK-293T) (PSI 1-6); higher = more stable; details: c terminus: a fixed tail appended;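 note: lentivirally expressed fusions sorted by FACS into six bins by GFP to DsRed ratio, PSI derived from sequencing read proportions per bin multiplied by bin number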
Listed next: entries and their corresponding protein stability index.

>  <RESIDUES>
FPELGYSYGGGSASSQHSEGSRSD [S24D]

>  <protein stability index>
3.24

$$$$
>  <RESIDUES>
FPELGYSYGGGSASSSHSEGSRSS [Q16S]

>  <protein stability index>
3.09

$$$$
>  <RESIDUES>
FPELGYSYGGGSALSQHSEGSRSS [S14L]

>  <protein stability index>
2.73

$$$$
>  <RESIDUES>
FPELGYSYGGGSASSQHSEGSRHS [S23H]

>  <protein stability index>
3.33

$$$$
>  <RESIDUES>
FPELGYSYGGGHASSQHSEGSRSS [S12H]

>  <protein stability index>
2.9

$$$$
>  <RESIDUES>
FPELGYSYGGGSASSQHSEGSRSN [S24N]

>  <protein stability index>
3.56

$$$$
>  <RESIDUES>
FPELGYSAGGGSASSQHSEGSRSS [Y8A]

>  <protein stability index>
3.72

$$$$
>  <RESIDUES>
FPELGYSYGGGSASSQHNEGSRSS [S18N]

>  <protein stability index>
2.89

$$$$
>  <RESIDUES>
FPELGYSYGGGSASSQFSEGSRSS [H17F]

>  <protein stability index>
2.77

$$$$
>  <RESIDUES>
FPELGYSYGGGSASSQHSEGSRVS [S23V]

>  <protein stability index>
2.63

$$$$
>  <RESIDUES>
FPELGYSHGGGSASSQHSEGSRSS [Y8H]

>  <protein stability index>
3.43

$$$$
>  <RESIDUES>
FPELGKSYGGGSASSQHSEGSRSS [Y6K]

>  <protein stability index>
3.37

$$$$
>  <RESIDUES>
FPELGYSYGGGSASSQHCEGSRSS [S18C]

>  <protein stability index>
2.9

$$$$
>  <RESIDUES>
FPELGYSYGGGSASSQHSEGSWSS [R22W]

>  <protein stability index>
2.88

$$$$
>  <RESIDUES>
FPELGYSYGGFSASSQHSEGSRSS [G11F]

>  <protein stability index>
2.28

$$$$
>  <RESIDUES>
FPELGNSYGGGSASSQHSEGSRSS [Y6N]

>  <protein stability index>
4.58

$$$$
>  <RESIDUES>
TPELGYSYGGGSASSQHSEGSRSS [F1T]

>  <protein stability index>
4.95

$$$$
>  <RESIDUES>
FPELGYSYGGGSASSQHQEGSRSS [S18Q]

>  <protein stability index>
3.15

$$$$
>  <RESIDUES>
FPELGYSYGGGSASSQHVEGSRSS [S18V]

>  <protein stability index>
3.36

$$$$
>  <RESIDUES>
FPELGYSYGMGSASSQHSEGSRSS [G10M]

>  <protein stability index>
2.15

$$$$
>  <RESIDUES>
FPELGYSYGGGSASSQHSNGSRSS [E19N]

>  <protein stability index>
2.59

$$$$
>  <RESIDUES>
FPELGYSYGGGSASSQHSEISRSS [G20I]

>  <protein stability index>
2.73

$$$$
>  <RESIDUES>
FPELGHSYGGGSASSQHSEGSRSS [Y6H]

>  <protein stability index>
3.77

$$$$
>  <RESIDUES>
FPELGYSYGGGSASSQHSEGSFSS [R22F]

>  <protein stability index>
2.79

$$$$
>  <RESIDUES>
FPELGYSYGGGSASSQHMEGSRSS [S18M]

>  <protein stability index>
2.76

$$$$
>  <RESIDUES>
FPELGYSYGGGSASSQHSEGSRCS [S23C]

>  <protein stability index>
3.38

$$$$
>  <RESIDUES>
FPELGYSYGNGSASSQHSEGSRSS [G10N]

>  <protein stability index>
3.55

$$$$
>  <RESIDUES>
FPELGYSYGGDSASSQHSEGSRSS [G11D]

>  <protein stability index>
3.35

$$$$
>  <RESIDUES>
FPELGYSYGGGSASSQHSEGSRSF [S24F]

>  <protein stability index>
2.57

$$$$
>  <RESIDUES>
FPELGYSYGGGSASSQHSEGSRLS [S23L]

>  <protein stability index>
2.49

$$$$
>  <RESIDUES>
FPELGYSYGGGMASSQHSEGSRSS [S12M]

>  <protein stability index>
2.9

$$$$
>  <RESIDUES>
FPELGYSYGGGDASSQHSEGSRSS [S12D]

>  <protein stability index>
3.2

$$$$
>  <RESIDUES>
CPELGYSYGGGSASSQHSEGSRSS [F1C]

>  <protein stability index>
4.68

$$$$
>  <RESIDUES>
FPELGYSYGGGSASSQHAEGSRSS [S18A]

>  <protein stability index>
3.19

$$$$
>  <RESIDUES>
FPELGISYGGGSASSQHSEGSRSS [Y6I]

>  <protein stability index>
3.77

$$$$
>  <RESIDUES>
FPELGYSYGGGSASSQHSEGSRSG [S24G]

>  <protein stability index>
3.01

$$$$
>  <RESIDUES>
FPELGYSCGGGSASSQHSEGSRSS [Y8C]

>  <protein stability index>
2.74

$$$$
>  <RESIDUES>
FPELGYSVGGGSASSQHSEGSRSS [Y8V]

>  <protein stability index>
3.45

$$$$
>  <RESIDUES>
FPELGYSYGGGSASSQHSEGSRRS [S23R]

>  <protein stability index>
3.05

$$$$
>  <RESIDUES>
FPELGYSYGGGIASSQHSEGSRSS [S12I]

>  <protein stability index>
2.64

$$$$
>  <RESIDUES>
FPELGYSYGGGSASSQHSEGSRST [S24T]

>  <protein stability index>
2.92

$$$$
>  <RESIDUES>
FPENGYSYGGGSASSQHSEGSRSS [L4N]

>  <protein stability index>
2.35

$$$$
>  <RESIDUES>
FPELGYSYGGGSLSSQHSEGSRSS [A13L]

>  <protein stability index>
3.18

$$$$
>  <RESIDUES>
FPELGYSYGGYSASSQHSEGSRSS [G11Y]

>  <protein stability index>
2.38

$$$$
>  <RESIDUES>
FPELGYSYGGGSASSQHYEGSRSS [S18Y]

>  <protein stability index>
2.9

$$$$
>  <RESIDUES>
FPELGYSYGGGSASAQHSEGSRSS [S15A]

>  <protein stability index>
3.59

$$$$
>  <RESIDUES>
FPELGYSYYGGSASSQHSEGSRSS [G9Y]

>  <protein stability index>
2.11

$$$$
>  <RESIDUES>
FPELGYSYGGGSASQQHSEGSRSS [S15Q]

>  <protein stability index>
3.18

$$$$
>  <RESIDUES>
FPELGYSYGGGCASSQHSEGSRSS [S12C]

>  <protein stability index>
3.03

$$$$
>  <RESIDUES>
FPELGYSYGGGSASSQHGEGSRSS [S18G]

>  <protein stability index>
3.12

$$$$
>  <RESIDUES>
FPELGYSYGGQSASSQHSEGSRSS [G11Q]

>  <protein stability index>
3.16

$$$$
>  <RESIDUES>
FPELGYEYGGGSASSQHSEGSRSS [S7E]

>  <protein stability index>
3.68

$$$$
>  <RESIDUES>
FPELGYSYPGGSASSQHSEGSRSS [G9P]

>  <protein stability index>
3.37

$$$$
>  <RESIDUES>
FPELGYSYGGGSASHQHSEGSRSS [S15H]

>  <protein stability index>
3.2

$$$$
>  <RESIDUES>
FPELGYSYGGGSASSQHSQGSRSS [E19Q]

>  <protein stability index>
2.66

$$$$
>  <RESIDUES>
FPELGYSYGGGSAPSQHSEGSRSS [S14P]

>  <protein stability index>
3.24

$$$$
>  <RESIDUES>
FPEWGYSYGGGSASSQHSEGSRSS [L4W]

>  <protein stability index>
1.76

$$$$
>  <RESIDUES>
FPELGYSYGGGSSSSQHSEGSRSS [A13S]

>  <protein stability index>
2.9

$$$$
>  <RESIDUES>
FPELGYSYGGGSASSQHSEGSRNS [S23N]

>  <protein stability index>
2.91

$$$$
>  <RESIDUES>
FPELGYSYGGGSASSQHPEGSRSS [S18P]

>  <protein stability index>
3.24

$$$$
>  <RESIDUES>
FPELGYSYGGWSASSQHSEGSRSS [G11W]

>  <protein stability index>
2.11

$$$$
>  <RESIDUES>
FPELGYSYGGGSASSQHSEGERSS [S21E]

>  <protein stability index>
3

$$$$
>  <RESIDUES>
FPELGYSYGGGSASSQHSKGSRSS [E19K]

>  <protein stability index>
2.89

$$$$
>  <RESIDUES>
FPELGYSYGGGSQSSQHSEGSRSS [A13Q]

>  <protein stability index>
2.8

$$$$
>  <RESIDUES>
FPELGYSYGIGSASSQHSEGSRSS [G10I]

>  <protein stability index>
2.81

$$$$
>  <RESIDUES>
FPELSYSYGGGSASSQHSEGSRSS [G5S]

>  <protein stability index>
3.52

$$$$
>  <RESIDUES>
FPELGYSYGGGSASGQHSEGSRSS [S15G]

>  <protein stability index>
2.8

$$$$
>  <RESIDUES>
FPELGYSYGGGSASSQHSEMSRSS [G20M]

>  <protein stability index>
2.48

$$$$
>  <RESIDUES>
FPELGYSYGGGSAWSQHSEGSRSS [S14W]

>  <protein stability index>
2.47

$$$$
>  <RESIDUES>
FPEDGYSYGGGSASSQHSEGSRSS [L4D]

>  <protein stability index>
4.52

$$$$
>  <RESIDUES>
FPELGRSYGGGSASSQHSEGSRSS [Y6R]

>  <protein stability index>
3.5

$$$$
